These measurements were taken from patent US6156700A.

- Tested on: Wheat, Winter, cv Riband, Triticum aestivum
- Experimental protocol: Preemergence herbicidal evaluation, TRZAWR
- Assay type: in vivo
- Conditions used: 0.2500 kg/ha
Consider the cut-off 5. If the recorded herbicide rating (0-9) is strictly smaller, the label is label 1; if not, the label is label 0.

Example cases with answers are listed next.
Cc1cc(O)c(-c2nsc3ccc(-n4c(=O)cc(C(F)(F)F)n(C)c4=O)cc23)cc1C [Compound 11]    label 1
COc1cc(C)ccc1-c1nsc2ccc(-n3c(=O)cc(C(F)(F)F)n(C)c3=O)cc12 [Compound 7]    label 0
CCc1ccc(-c2nsc3ccc(-n4c(=O)cc(C(F)(F)F)n(C)c4=O)cc23)cc1 [Compound 5]    label 1
Cn1c(C(F)(F)F)cc(=O)n(-c2ccc3snc(-c4ccccc4)c3c2)c1=O [Compound 4]    label 0
COC(=O)COc1noc2ccc(-n3c(=O)cc(C(F)(F)F)n(C)c3=O)cc12 [Compound 22]    label 1

(Q) Dear colleague, could you confirm whether herbicide rating (0-9) of Cc1nsc2ccc(-n3c(=O)cc(C(F)(F)F)n(C)c3=O)cc12 [Compound 6] falls below 5? Thanks.
(A) label 0

(Q) Just wondering, is herbicide rating (0-9) of COc1c(C)cc(C)cc1-c1nsc2ccc(-n3c(=O)cc(C(F)(F)F)n(C)c3=O)cc12 [Compound 18] below 5?
(A) label 1

###

Below, each of the compounds is paired with its reported herbicidal effect rating value.
- Test system: SAGPY Arrowhead (Pygmaea)
- Experimental protocol: Postemergence weed control, flooded paddy (Table IV)
- Format: in vivo, Sagittaria pygmaea
- Parameters: scale not given here
- Conditions used: 0.1250 kg/ha

Some compounds with recorded herbicidal effect rating:
CCOc1cccc(-c2nsc3ccc(-n4c(=O)cc(C(F)(F)F)n(C)c4=O)cc23)c1 [Compound 327]    4.0
COc1cc(C)ccc1-c1nsc2ccc(-n3c(=O)cc(C(F)(F)F)n(C)c3=O)cc12 [Compound 7]    4.0
COc1ccc(OC)c(-c2nsc3ccc(-n4c(=O)cc(C(F)(F)F)n(C)c4=O)cc23)c1 [Compound 333]    4.0
Cn1c(C(F)(F)F)cc(=O)n(-c2ccc3snc(-c4ccccc4)c3c2)c1=O [Compound 4]    6.0
CCCCC(=O)c1nsc2ccc(-n3c(=O)cc(C(F)(F)F)n(C)c3=O)cc12 [Compound 431]    0.0

Field herbicidal effect rating (system: SAGPY Arrowhead (Pygmaea)) for entry COC(=O)C(C)Oc1ccc(C)cc1-c1nsc2ccc(-n3c(=O)cc(C(F)(F)F)n(C)c3=O)cc12 (centres unmarked) [Compound 3] = 0.0

Tested on SAGPY Arrowhead (Pygmaea): Cn1c(C(F)(F)F)cc(=O)n(-c2ccc3snc(C(=O)C(C)(C)C)c3c2)c1=O [Compound 432] . Observed herbicidal effect rating: 2.0

Tested on SAGPY Arrowhead (Pygmaea), the item COC(=O)COc1ccc(C)cc1-c1nsc2ccc(-n3c(=O)cc(C(F)(F)F)n(C)c3=O)cc12 [Compound 2] showed herbicidal effect rating equal to 0.0

###

- Test system: Sicklepod, Cassia obtusifolia
- Experimental protocol: Preemergence herbicidal evaluation, CASOB
- Type: in vivo, L.
- Conditions used: 0.2500 kg/ha
# herbicide rating (0-9) per entry
Answer with a bare number; do not write a unit.

Memo: Cc1nsc2ccc(-n3c(=O)cc(C(F)(F)F)n(C)c3=O)cc12 [Compound 6] , reported herbicide rating (0-9): 9.0

So, Cn1c(C(F)(F)F)cc(=O)n(-c2ccc3onc(-c4ccccc4)c3c2)c1=O [Compound 25] ? Its herbicide rating (0-9) was 9.0

Notebook: COc1c(C)cc(C)cc1-c1nsc2ccc(-n3c(=O)cc(C(F)(F)F)n(C)c3=O)cc12 [Compound 18] , herbicide rating (0-9) read as 4.0

The value of herbicide rating (0-9) measured for the molecule COC(=O)C(C)Oc1ccc(C)cc1-c1nsc2ccc(-n3c(=O)cc(C(F)(F)F)n(C)c3=O)cc12 (centres unmarked) [Compound 3] turned out to be 9.0

According to the records, this molecule COC(=O)COc1c(C)cc(C)cc1-c1nsc2ccc(-n3c(=O)cc(C(F)(F)F)n(C)c3=O)cc12 [Compound 26] displays herbicide rating (0-9) of 9.0
